# assay-method-text: Solubility of CHP hydrate (Pattern 2) in EtOH/water/MtBE
# Type: physicochemical
# condition-parameters: (EtOH/water = 9/1)/MtBE 3/3 (v/v), 50 °C, organic solvent or mixture
value-kind: solubility (mg/mL)

>  <compound>
O=C1N[C@@H](Cc2cnc[nH]2)C(=O)N2CCC[C@@H]12 [Pattern 2]

>  <value-kind>
solubility

>  <units>
mg/mL

>  <measured>
101

$$$$

----------
# assay-method-text: pH solubility assessment in buffers at 37 °C
# Format: physicochemical
# condition-parameters: aqueous buffer, thermodynamic from solid; buffer pH 7.2, 37 °C; read-out: Approximate Solubility

>  <structure-notation>
O=C1N[C@@H](Cc2cnc[nH]2)C(=O)N2CCC[C@@H]12

>  <solubility at 10 min>
333 to 500 mg/mL

$$$$

----------
# assay-method-text: Solubility of CHP hydrate (Pattern 2) in water/acetone
# Type: physicochemical
# condition-parameters: water/acetone 1/9 (v/v), 50 °C, organic solvent or mixture

>  <structure-notation>
O=C1N[C@@H](Cc2cnc[nH]2)C(=O)N2CCC[C@@H]12

>  <solubility, mg/mL>
159

$$$$

----------
# assay-method-text: Solubility of CHP hydrate (Pattern 2) in EtOH/water/MtBE
# Format: physicochemical
# condition-parameters: (EtOH/water = 9/1)/MtBE 3/1 (v/v), 50 °C, organic solvent or mixture

>  <structure-notation>
O=C1N[C@@H](Cc2cnc[nH]2)C(=O)N2CCC[C@@H]12

>  <solubility>
> 200 mg/mL

$$$$

----------
# assay-method-text: Solubility of CHP hydrate (Pattern 2) in EtOH/water/MtBE
# Format: physicochemical
# condition-parameters: (EtOH/water = 9/1)/MtBE 3/0 (v/v), 5 °C, organic solvent or mixture
value-kind: solubility (mg/mL)

>  <structure-notation>
O=C1N[C@@H](Cc2cnc[nH]2)C(=O)N2CCC[C@@H]12

>  <units>
mg/mL

>  <measured>
121

$$$$

----------
# assay-method-text: Solubility of CHP hydrate (Pattern 2) in EtOH/water/MtBE
# Format: physicochemical
# condition-parameters: (EtOH/water = 9/1)/MtBE 3/0 (v/v), 50 °C, organic solvent or mixture
value-kind: solubility

>  <compound>
O=C1N[C@@H](Cc2cnc[nH]2)C(=O)N2CCC[C@@H]12 [Pattern 2]

>  <value-kind>
solubility

>  <measured>
> 200 mg/mL

$$$$

----------
# assay-method-text: Solubility of CHP hydrate (Pattern 2) in water/acetone
# Type: physicochemical
# condition-parameters: water/acetone 8/2 (v/v), 5 °C, aqueous with cosolvent or surfactant or cyclodextrin
value-kind: solubility

>  <compound>
O=C1N[C@@H](Cc2cnc[nH]2)C(=O)N2CCC[C@@H]12 [Pattern 2]

>  <measured>
> 200 mg/mL

$$$$

----------
# assay-method-text: Solubility of CHP hydrate (Pattern 2) in water/acetone
# Assay type: physicochemical
# condition-parameters: water/acetone, 5 °C, organic solvent or mixture, water/acetone 0.5/9.5 (v/v)

>  <structure-notation>
O=C1N[C@@H](Cc2cnc[nH]2)C(=O)N2CCC[C@@H]12

>  <solubility [mg/mL]>
19

$$$$

----------
# assay-method-text: Solubility of CHP hydrate (Pattern 2) in EtOH/water/MtBE
# Type: physicochemical
# condition-parameters: (EtOH/water = 9/1)/MtBE 3/9 (v/v), 5 °C, organic solvent or mixture
value-kind: solubility

>  <structure-notation>
O=C1N[C@@H](Cc2cnc[nH]2)C(=O)N2CCC[C@@H]12

>  <measured>
6000 µg/mL

$$$$

----------
# assay-method-text: Solubility of CHP hydrate (Pattern 2) in water/acetone
# Assay type: physicochemical
# condition-parameters: water/acetone 4/6 (v/v), 5 °C, organic solvent or mixture

>  <molecule>
O=C1N[C@@H](Cc2cnc[nH]2)C(=O)N2CCC[C@@H]12 [Pattern 2]

>  <units>
mg/mL

>  <solubility>
179

$$$$

----------
# assay-method-text: Solubility of CHP hydrate (Pattern 2) in EtOH/water/MtBE
# Assay type: physicochemical
# condition-parameters: (EtOH/water = 9/1)/MtBE 3/6 (v/v), 5 °C, organic solvent or mixture
value-kind: solubility (µg/mL)

>  <structure-notation>
O=C1N[C@@H](Cc2cnc[nH]2)C(=O)N2CCC[C@@H]12

>  <measured>
6000

$$$$

----------
# assay-method-text: Solubility of CHP hydrate (Pattern 2) in water/acetone
# Format: physicochemical
# condition-parameters: water/acetone, 50 °C, aqueous with cosolvent or surfactant or cyclodextrin, water/acetone 8/2 (v/v)
value-kind: solubility

>  <structure-notation>
O=C1N[C@@H](Cc2cnc[nH]2)C(=O)N2CCC[C@@H]12

>  <measured>
> 200 mg/mL

$$$$

----------
# assay-method-text: Solubility of CHP hydrate (Pattern 2) in EtOH/water/MtBE
# Assay type: physicochemical
# condition-parameters: (EtOH/water = 9/1)/MtBE 3/1 (v/v), 5 °C, organic solvent or mixture

>  <structure-notation>
O=C1N[C@@H](Cc2cnc[nH]2)C(=O)N2CCC[C@@H]12

>  <solubility>
59 mg/mL

$$$$

----------
# assay-method-text: pH solubility assessment in buffers at 37 °C
# Assay type: physicochemical
# condition-parameters: buffer pH 1, 37 °C, pH 1, thermodynamic from solid; read-out: Approximate Solubility

>  <compound>
O=C1N[C@@H](Cc2cnc[nH]2)C(=O)N2CCC[C@@H]12 [Pattern 2]

>  <solubility at 10 min>
333 to 500 mg/mL

$$$$

----------
# assay-method-text: Solubility of CHP hydrate (Pattern 2) in EtOH/water/MtBE
# Assay type: physicochemical
# condition-parameters: (EtOH/water = 9/1)/MtBE 3/9 (v/v), 50 °C, organic solvent or mixture
value-kind: solubility (mg/mL)

>  <structure-notation>
O=C1N[C@@H](Cc2cnc[nH]2)C(=O)N2CCC[C@@H]12

>  <value-kind>
solubility

>  <units>
mg/mL

>  <measured>
17

$$$$

----------
# assay-method-text: Solubility of CHP hydrate (Pattern 2) in water/acetone
# Type: physicochemical
# condition-parameters: water/acetone 1/9 (v/v), 5 °C, organic solvent or mixture
value-kind: solubility (mg/mL)

>  <structure-notation>
O=C1N[C@@H](Cc2cnc[nH]2)C(=O)N2CCC[C@@H]12

>  <units>
mg/mL

>  <measured>
48

$$$$

----------
# assay-method-text: Solubility of CHP hydrate (Pattern 2) in water/acetone
# Type: physicochemical
# condition-parameters: water/acetone 0/10 (v/v), 50 °C, organic solvent or mixture

>  <structure-notation>
O=C1N[C@@H](Cc2cnc[nH]2)C(=O)N2CCC[C@@H]12

>  <solubility [mg/mL]>
14

$$$$

----------
# assay-method-text: pH solubility assessment in buffers at 37 °C
# Format: physicochemical
# condition-parameters: buffer, aqueous buffer, thermodynamic from solid; all pH values tested (pH 1, 4, 6.8 and 7.2), 37 °C; read-out: Solubility (estimated)

>  <structure-notation>
O=C1N[C@@H](Cc2cnc[nH]2)C(=O)N2CCC[C@@H]12

>  <solubility at 10 min>
333 to 500 mg/mL

$$$$

----------
# assay-method-text: Solubility of CHP hydrate (Pattern 2) in water/acetone
# Type: physicochemical
# condition-parameters: water/acetone 9/1 (v/v), 5 °C, aqueous with cosolvent or surfactant or cyclodextrin
value-kind: solubility (mg/mL)

>  <structure-notation>
O=C1N[C@@H](Cc2cnc[nH]2)C(=O)N2CCC[C@@H]12

>  <value-kind>
solubility

>  <units>
mg/mL

>  <measured>
215

$$$$

----------
# assay-method-text: pH solubility assessment in buffers at 37 °C
# Format: physicochemical
# condition-parameters: buffer pH 4, 37 °C, pH 4, aqueous buffer, thermodynamic from solid; read-out: Approximate Solubility
# Method: CHP patterns 1 and 2 were prepared for pH solubility assessment as follows: • 100 mg of CHP pattern 1 and pattern 2 were each weighed out into 4, 5 mL screw top glass vials; • 100 μL of a selected buffer, pre-heated to 37° C., was added to each vial; • Samples were heated to 37° C. in an incubator shaker for ca. 10 minutes after each volume of buffer and checked for sample dissolution.
value-kind: solubility at 10 min

>  <structure-notation>
O=C1N[C@@H](Cc2cnc[nH]2)C(=O)N2CCC[C@@H]12

>  <measured>
333 to 500 mg/mL

$$$$

----------
# assay-method-text: Solubility of CHP hydrate (Pattern 2) in water/acetone
# Type: physicochemical
# condition-parameters: water/acetone, 50 °C, organic solvent or mixture, water/acetone 4/6 (v/v)

>  <structure-notation>
O=C1N[C@@H](Cc2cnc[nH]2)C(=O)N2CCC[C@@H]12

>  <solubility>
> 200 mg/mL

$$$$

----------
# assay-method-text: Solubility of CHP hydrate (Pattern 2) in water/acetone
# Type: physicochemical
# condition-parameters: water/acetone, 50 °C, organic solvent or mixture, water/acetone 2/8 (v/v)

>  <structure-notation>
O=C1N[C@@H](Cc2cnc[nH]2)C(=O)N2CCC[C@@H]12

>  <solubility>
> 200 mg/mL

$$$$
